Target: NADPH oxidase 2 (Homo sapiens)
Assay: NOX2-dependent H2O2 signal modulators, primary screen, NOX inhibitor project, cell-based, HEK293-NOX2, PMA-stimulated, Amplex Red fluorescence (AID 1159); note: test concentration not given here
Details: 45 min, higher = more signal, called active from +8 up or from −8 down
endpoint: z-score
Keep the answer to the number alone.

# example entries with known answers
>>> assayvalue("CN(C)C(=O)[C@@]1(CCC(=O)OC(C)(C)C)N=C(c2ccc(OCCCO)cc2)O[C@H]1c1ccccc1CN=[N+]=[N-]")
-1.73
>>> assayvalue("CC(C)CCC[C@@H](C)[C@H]1CC[C@@]2(C)C3=C(CC[C@]12C)[C@@]1(C)CC[C@H](OC(=O)c2ccccc2)C(C)(C)C1CC3 (some centres undefined)")
-0.898
>>> assayvalue("CCOC(=O)C1=CCC(c2ccccc2)N(S(=O)(=O)c2ccc([N+](=O)[O-])cc2)C1 (centres undefined)")
0.528

*Q* Find the recorded z-score belonging to C=C(/C(=C/C[C@@H](OC(C)=O)c1ccc(OCCO)cc1)c1cc(C(=O)OC)ccc1OC)C(C)C and report it.
*A* -0.323

###

Test: mitochondrial membrane potential change in A549 cells, profiling panel, cell-based, JC-1 fluorescence, basal, 24 h, 100 nL (AID 1138);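 note: A549 lung adenocarcinoma cells under basal conditions with no added stimulus; test concentration not given here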
Conditions: higher = more signal
Listed here are compounds together with their documented z-score.
Lab note: jot the number down without any unit.

>>> assayvalue("COc1cc(NN2C(C(O)c3ccccc3)C=CC3C(=O)N(C)C(=O)C32)cc(OC)c1OC (stereo not given)")
-0.109
>>> assayvalue("COc1cc2c(cc1O)C(c1cccs1)N(Cc1sc3ccccc3c1Cl)CC2 (stereo not given)")
-0.702

*Q* # query: z-score of entry C=C[C@@H](C)[C@@H](OC(=O)Nc1ccc(SC)cc1)c1ccc(OCCO)cc1
*A* -1.64

*Q* Now give it for CCCCC(=O)N(CCN1CCOCC1)[C@@H]1CC(C(=O)NCCO)=C[C@H](Oc2c(I)cc(CO)cc2OC)[C@H]1O too.
*A* 0.809

*Q* Next compound: O=C(O)[C@@H]1C[C@@H]2C(=O)N3CCC[C@H]3C(=O)N2[C@@H]1c1cccc(OCCO)c1
*A* 0.729

###

Assay: PSAC antagonists in infected red cells, primary screen, cell-based, P. falciparum Indochina, OD700, 2 h (AID 1155);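 note: lysis reports solute entry through the parasite surface anion channel PSAC; channel blockers reduce lysis of infected cells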
Details: P. falciparum Indochina infected erythrocytes, osmotic lysis OD700; higher = more signal, called active from +8 up or from −8 down
endpoint: z-score
Lab note: record the figure alone, no unit after it.

Some solved cases for reference:
>>> assayvalue("CN(C)CCCNC(=O)[C@@H]1c2ccccc2C(=O)N(C2CCCCC2)[C@H]1c1ccc(CO)cc1")
-0.541
>>> assayvalue("CC(C)N1CC=CC23O[C@@H]4/C=C\\CCCOC(=O)C4[C@H]2C(=O)N(CCCCCCO)[C@@H]3C1=O (stereo partly drawn)")
0.0039
>>> assayvalue("O=C1C[C@@](C(=O)NCc2ccccc2)(c2ccc([N+](=O)[O-])cc2)[C@@H](c2ccc(CO)cc2I)N1CC12CC3CC(CC(C3)C1)C2")
1.41
>>> assayvalue("Cc1nc2cc(Br)ccc2c(=O)n1Cc1cccc(O)c1")
0.368
>>> assayvalue("CC=CC(O)C1C=CC2C(=O)NC(=O)C2N1Nc1ccccn1 (stereo not drawn)")
-0.0554

*Q* Return reported z-score; argument: CCN(CC)c1ccc(N2CC=CC34O[C@@H]5/C=C\CCC(C)OC(=O)C5[C@H]3C(=O)N(C(C)CO)[C@@H]4C2=O)cc1 (stereo partly drawn)
*A* -0.227

*Q* Then O=C1O[C@H](c2ccccc2)[C@H](c2ccccc2)N2[C@H]1[C@@H](C(=O)N1CCCCCCC1)[C@]1(C(=O)Nc3ccc(C#CC4(O)CCCCCC4)cc31)[C@H]2c1ccc(O)cc1 ?
*A* 0.222

*Q* Entry to check: COc1cc2c(cc1O)C(c1ccc(CN3CCCC3)cc1)N(C)CC2 (stereo not drawn)
*A* -0.0719
